Assay procedure: Cytotoxicity (MTT) assay of single and dual combinatory drugs
Assay type: cell-based
Condition label: human, HYDROXYCHLOROQUINE-LOPIRITO series; 400 μg/mL; read-out: Cell Viability (%)
Description: Each tablet containing drugs was triturated and mixed until homogenous. Approximately 50 mg equivalent mass of drugs were weighed and added to dimethyl sulfoxide in order to solubilize the drugs. […] The samples were prepared by diluting the stock solution of each drug with RPMI complete media at an appropriate level of dilution to produce a determined concentration. […] In this study, the cytotoxicity assay was evaluated for single and dual combinatory drugs during a period of 48 hours of drug incubation. […]
Property label: viability at 48 h, 400 μg/mL (%)
Answer format: numeric, % implied, no suffix.

Measured viability at 48 h, 400 μg/mL, CCN(CCO)CCCC(C)Nc1ccnc2cc(Cl)ccc12 (stereo not shown) [HCQ, Hydroxychloroquine] : 7.4

###

Assay procedure: Cytotoxicity (MTT) assay of single and dual combinatory drugs
Type: cell-based
Condition label: human, HCQ-AZI experiment (Fig 7); 48 hours; CompuSyn; n = 3; read-out: CC50
Property label: CC50 at 48 h (µg/mL)
Number only, in µg/mL; omit the unit.

# CC50 at 48 h of CCN(CCO)CCCC(C)Nc1ccnc2cc(Cl)ccc12 (stereo not shown) [HCQ, Hydroxychloroquine] = 5940

###

Assay procedure: Cytotoxicity (MTT) assay of single and dual combinatory drugs
Assay type: cell-based
Condition label: human, LOPIRITO-CLARITHROMYCIN series; 100 μg/mL; read-out: Cell Viability (%)
Property label: viability at 48 h, 100 μg/mL
Enter the number, and then the unit.

viability at 48 h, 100 μg/mL measured on CC[C@H]1OC(=O)[C@H](C)[C@@H](O[C@H]2C[C@@](C)(OC)[C@@H](O)[C@H](C)O2)[C@H](C)[C@@H](O[C@@H]2O[C@H](C)C[C@H](N(C)C)[C@H]2O)[C@](C)(OC)C[C@@H](C)C(=O)[C@H](C)[C@@H](O)[C@]1(C)O [CLA, Clarithromycin] = 92.6%

###

Assay procedure: Cytotoxicity (MTT) assay of single and dual combinatory drugs
Format: cell-based
Condition label: human, FAVIPIRAVIR-AZITHROMYCIN series; 10 μg/mL; read-out: Cell Viability (%)
Property label: viability at 48 h, 10 μg/mL (%)
Give the quantity in %, number only.

Compound	Readout units	Reading
CC[C@H]1OC(=O)[C@H](C)[C@@H](O[C@H]2C[C@@](C)(OC)[C@@H](O)[C@H](C)O2)[C@H](C)[C@@H](O[C@@H]2O[C@H](C)C[C@H](N(C)C)[C@H]2O)[C@](C)(O)C[C@@H](C)CN(C)[C@H](C)[C@@H](O)[C@]1(C)O [AZI, Azithromycin]	%	110

Turning to the following compound.
Note to self: viability at 48 h, 10 μg/mL recorded for NC(=O)c1nc(F)c[nH]c1=O [FAVI, Favipiravir] was 109

###

Assay procedure: Cytotoxicity (MTT) assay of single and dual combinatory drugs
Format: cell-based
Condition label: human, LOPIRITO-DOXYCYCLINE series; 100 μg/mL; read-out: Cell Viability (%)
Property label: viability at 48 h, 100 μg/mL (%)
Give the value, in units of %, as a plain number.

The value of viability at 48 h, 100 μg/mL measured for the compound C[C@H]1c2cccc(O)c2C(=O)C2=C(O)[C@]3(O)C(=O)C(C(N)=O)=C(O)[C@@H](N(C)C)[C@@H]3[C@@H](O)[C@@H]21 [DOXY, Doxycycline] turned out to be 92.8
